# ASSAY PROCEDURE: in vitro
# ASSAY CONDITIONS: PAMPA, PAMPA-BBB Pe(10^-6 cm/sec), Table S3: compounds exhibiting low PAMPA-BBB permeability
READOUT NAME: Papp (×10⁻⁶ cm/s)
Give just the number in ×10⁻⁶ cm/s; leave the unit off.

Some molecules with known Papp results, for comparison:
{"MOLECULE": "Oc1cc(O)c2cc(O)c(-c3cc(O)c(O)c(O)c3)[o+]c2c1 [D[…]]", "EXPERIMENTAL RESULT": 4.7}
{"MOLECULE": "NCCC(=O)c1ccccc1N [KYNURAMINE]", "EXPERIMENTAL RESULT": 2.4}

Next:
Tell me Papp reported for c1coc(CNc2ncnc3[nH]cnc23)c1 [KINETIN] 4

Each recorded value in this set is attributed to paper PMC11876671.
